biological target: human 5-HT2C receptor (Homo sapiens, UniProt P28335); assay: Calcium mobilization (FLIPR) in CHO cells stably expressing the human 5-HT2C receptor; assay type: cell-based; conditions: CHO; read-out: 5-HT2C Function EMax (%)
Sequence (P28335 33-458): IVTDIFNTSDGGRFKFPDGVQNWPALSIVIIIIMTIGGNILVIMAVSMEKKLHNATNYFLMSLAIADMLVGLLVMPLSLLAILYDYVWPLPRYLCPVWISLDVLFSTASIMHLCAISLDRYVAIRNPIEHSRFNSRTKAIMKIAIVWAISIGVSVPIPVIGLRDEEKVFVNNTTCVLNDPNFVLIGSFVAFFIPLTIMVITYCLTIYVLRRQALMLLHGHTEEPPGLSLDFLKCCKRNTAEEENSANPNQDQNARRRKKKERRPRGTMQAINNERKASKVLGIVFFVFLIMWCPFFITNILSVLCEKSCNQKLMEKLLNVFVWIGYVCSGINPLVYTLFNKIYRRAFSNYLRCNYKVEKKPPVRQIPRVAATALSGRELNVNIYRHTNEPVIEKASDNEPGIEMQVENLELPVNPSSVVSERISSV
measurement.kind: Emax (%)

- NCc1cc2ccc(Cl)c(-c3ccccc3Cl)c2o1: 90
- Cc1ccc(Cl)cc1-c1cc(F)cc2cc(CN)oc12: 80
- NCc1cc2cc(F)cc(-c3c(Cl)cccc3Cl)c2o1: 100
- Cc1cc(Cl)ccc1-c1cc(F)cc2cc(CN)oc12: 80
- Cc1ccccc1-c1cc(Cl)cc2cc(CN)oc12: 90
